# assay system: human PCSK9 (Homo sapiens, UniProt Q8NBP7)
# Sequence (Q8NBP7 153-692): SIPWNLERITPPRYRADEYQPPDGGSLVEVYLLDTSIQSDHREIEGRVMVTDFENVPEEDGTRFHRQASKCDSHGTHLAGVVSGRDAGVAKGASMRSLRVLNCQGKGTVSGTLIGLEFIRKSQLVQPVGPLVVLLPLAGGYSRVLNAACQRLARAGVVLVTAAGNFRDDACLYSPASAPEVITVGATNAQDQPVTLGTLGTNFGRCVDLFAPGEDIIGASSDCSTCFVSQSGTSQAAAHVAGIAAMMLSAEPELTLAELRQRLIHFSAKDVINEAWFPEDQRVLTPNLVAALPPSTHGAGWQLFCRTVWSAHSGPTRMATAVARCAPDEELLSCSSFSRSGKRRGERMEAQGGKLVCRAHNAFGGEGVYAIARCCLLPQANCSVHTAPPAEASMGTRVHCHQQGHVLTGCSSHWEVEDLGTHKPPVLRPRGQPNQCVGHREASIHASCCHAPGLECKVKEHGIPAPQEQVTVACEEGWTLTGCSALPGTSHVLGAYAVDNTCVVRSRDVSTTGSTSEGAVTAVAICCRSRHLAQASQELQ
# Sequence (Q8NBP7 31-152 partner limits assumed): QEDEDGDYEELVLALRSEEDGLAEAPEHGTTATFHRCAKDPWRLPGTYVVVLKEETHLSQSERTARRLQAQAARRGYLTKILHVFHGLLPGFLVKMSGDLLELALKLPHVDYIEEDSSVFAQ
# experiment summary: PCSK9 ligand binding TR-FRET assay (interference with binding of human PCSK9 to human LDLR)
# condition set: TR-FRET; human PCSK9 Alexa Fluor 647 / human LDLR extracellular domain-Europium Kryptate; read-out: PCSK9 FRET Assay IC50
# Experimental: The PCSK9 binding of the compounds of the disclosure were measured using a time resolved fluorescence resonance energy transfer (TR-FRET) assay. This time resolved fluorescence resonance energy transfer (TR-FRET) assay measures the ability of a compound of the present disclosure to interfere with the binding of human PCSK9 to human LDLR, providing measures of both potency (IC50) and efficacy (Amax). […] Data is expressed as percent inhibition: (value−0%)/(100%−0%).
test readout: IC50 (nM)
Note: unit nM is implicit; provide only the numeric part.

Example cases with answers are listed next.
{"compound": "COC[C@@H]1NC(=O)[C@H](C)N(Cc2ccc(Cl)cc2Oc2ccc(-c3cnc(CN(C)C)n3C)cc2)C(=O)C[C@@H](Cc2ccccc2)C(=O)N(C)[C@@H](C)CNC(=O)C[C@H](Cc2ccc(Cl)cc2)N(C)C1=O", "test readout": "IC50", "data value": 1.5}
{"compound": "C[C@H]1CNC(=O)C[C@H](Cc2ccc(Cl)cc2)N(C)C(=O)[C@H](CC(=O)OC(C)(C)C)NC(=O)[C@H](C)N(Cc2ccc(Cl)cc2Oc2ccc(-c3cnc(CN(C)C)n3C)cc2)C(=O)C[C@@H](Cc2ccccc2)C(=O)N1C", "test readout": "IC50", "data value": 11.5}
{"compound": "COC[C@@H]1NC(=O)[C@H](C)N(Cc2ccc(Cl)cc2Oc2ccc(-c3cnc(CN4CCCC4)n3C)cc2)C(=O)C[C@@H](Cc2ccn(C(F)F)n2)C(=O)N(C)[C@@H](C)CNC(=O)C[C@H](Cc2ccc(Cl)cc2)N(C)C1=O", "test readout": "IC50", "data value": 87.3}
{"compound": "COC[C@@H]1NC(=O)[C@H](C)N(Cc2ccc(Cl)cc2Oc2ccc(-c3cnc(CN(C)C)n3C)cc2)C(=O)C[C@@H](Cc2ccccc2)C(=O)N(C)[C@@H]2CCOC[C@H]2NC(=O)C[C@H](Cc2ccc(Cl)cc2)N(C)C1=O", "test readout": "IC50", "data value": 650}
{"compound": "COC[C@@H]1NC(=O)[C@H](C)N(Cc2ccc(Cl)cc2Oc2ccc(-c3cnc(CN(C)C)n3C)cc2)C(=O)C[C@H]2C(=O)N(C)[C@@H](CNC(=O)C[C@H](Cc3ccc(Cl)cc3)N(C)C1=O)C(=O)N2C", "test readout": "IC50", "data value": 205}

Now let's try a different one.
QUERY: Entry under review: C[C@H]1CNC(=O)C[C@H](Cc2ccc(Cl)cc2)N(C)C(=O)[C@H](CCC(=O)O)NC(=O)[C@H](C)N(Cc2ccc(Cl)cc2Oc2ccc(-c3cnc(CN(C)C)n3C)cc2)C(=O)C[C@@H](Cc2ccccc2)C(=O)N1C . Reported IC50?
RESULT: 705
